Tested on: Plasmodium berghei
Assay: Screen against P. berghei liver stage (PbLuc), transformed with Luciferase, at 2uM
Type: functional, HepG2
Conditions: tested at 2 uM
Screen size: about 68,000 compounds; about 2,700 (4%) showed an effect of 50% or more. Many of the other results were omitted from the sample, so strong results are more common in it than they were.
Decide by INHIBITION: equal to or exceeding 30% means Condition met, less means Condition not met.

>  <compound>
Clc1ccc(C2(CNC3=NCCN3)CC2)cc1

>  <assay target>
Plasmodium berghei

>  <discrete label>
Condition met

$$$$
>  <compound>
Nc1nc(CN2CCN(c3nccs3)CC2)cs1

>  <assay target>
Plasmodium berghei

>  <discrete label>
Condition not met

$$$$
>  <compound>
CC(C)NC(=O)C1CCc2nnc(CNC(=O)c3ccc(Cl)cc3Cl)n21 (configuration not stated)

>  <assay target>
Plasmodium berghei

>  <discrete label>
Condition not met

$$$$
>  <compound>
COCCC(=O)NC(C)(C(N)=O)c1cccc(Cl)c1 (configuration not stated)

>  <assay target>
Plasmodium berghei

>  <discrete label>
Condition not met

$$$$
>  <compound>
CC(C)C(=O)N1CCCC1C(=O)Nc1ccc(F)c(F)c1 (configuration not stated)

>  <assay target>
Plasmodium berghei

>  <discrete label>
Condition met

$$$$
>  <compound>
COc1ccccc1OCC(=O)NCC(O)(c1ccccc1)C1CC1 (configuration not stated)

>  <assay target>
Plasmodium berghei

>  <discrete label>
Condition not met

$$$$
>  <compound>
CCC(C)c1csc(NC(=O)Cc2csc(-c3nnc[nH]3)n2)n1 (configuration not stated)

>  <assay target>
Plasmodium berghei

>  <discrete label>
Condition not met

$$$$
>  <compound>
Nc1ncccc1CN1CCCn2nc(CCC(=O)NC3CC3)cc2C1

>  <assay target>
Plasmodium berghei

>  <discrete label>
Condition not met

$$$$
>  <compound>
CC(C)C(=O)N1CCCC1C(=O)Nc1cc(C(F)(F)F)ccc1F (configuration not stated)

>  <assay target>
Plasmodium berghei

>  <discrete label>
Condition not met

$$$$
>  <compound>
CN(C)C(=O)c1cccnc1SCc1ccccc1Cl

>  <assay target>
Plasmodium berghei

>  <discrete label>
Condition not met

$$$$
>  <compound>
CCN(C(C)=O)c1nc(CN2CCN(c3nccs3)CC2)cs1

>  <assay target>
Plasmodium berghei

>  <discrete label>
Condition met

$$$$
>  <compound>
Clc1ccc(C2(CNC3=NCCN3)CCCCC2)cc1

>  <assay target>
Plasmodium berghei

>  <discrete label>
Condition met

$$$$
